target: human GPCR sphingosine 1-phosphate receptor 2 (S1PR2) (Homo sapiens); experiment: S1P2 antagonist assay (Ca2+ flux, S1P at EC80); details: CHO-S1PR2 cells, highest concentration 20 μM
Form field: log10 of EC50 (one value per entry).
MEASURED METRIC: log10 of EC50 (log10 of the value in nM)

INSERT INTO results (compound, measured_metric, quantitative_readout) VALUES
  ('Cc1cc(CNC(=O)Nc2ccnc(C(F)(F)F)c2)nnc1-c1cn(C)nc1C(F)(F)F', 'log10 of EC50', 3.78),
  ('CN(C)c1cc(CNC(=O)Nc2cc(Cl)nc(OCC(F)F)c2)nnc1-c1cn(C)nc1C(F)(F)F', 'log10 of EC50', 1.82),
  ('Cc1cc(CNC(=O)Nc2cc(Cl)nc(OCCF)c2)nnc1-c1cn(C)nc1C(F)(F)F', 'log10 of EC50', 1.03),
  ('Cc1cc(CNC(=O)Nc2cc(OCC3CC3(F)F)nc(C(F)(F)F)c2)nnc1-c1cn(C)nc1C(F)(F)F (stereo not shown)', 'log10 of EC50', 1.57),
  ('Cc1cc(CNC(=O)Nc2cc(OCC3CCOC3)nc(C(F)(F)F)c2)nnc1-c1cn(C)nc1C(F)(F)F (stereo not shown)', 'log10 of EC50', 2.90),
  ('CCOc1cc(NC(=O)NCc2cc(C)c(-c3cn(C)nc3C3CC3)nn2)cc(C(F)(F)F)n1', 'log10 of EC50', 1.18),
  ('Cc1cc(CNC(=O)Nc2cc(OC3CCOCC3)nc(C(F)(F)F)c2)nnc1-c1cn(C)nc1C(F)(F)F', 'log10 of EC50', 2.46);

###

target: human GPCR sphingosine 1-phosphate receptor 2 (S1PR2) (Homo sapiens, UniProt O95136); assay: S1P2 antagonist assay (Ca2+ flux, S1P at EC80); details: CHO-S1PR2 cells, highest concentration 20 μM
Sequence (O95136 whole entry): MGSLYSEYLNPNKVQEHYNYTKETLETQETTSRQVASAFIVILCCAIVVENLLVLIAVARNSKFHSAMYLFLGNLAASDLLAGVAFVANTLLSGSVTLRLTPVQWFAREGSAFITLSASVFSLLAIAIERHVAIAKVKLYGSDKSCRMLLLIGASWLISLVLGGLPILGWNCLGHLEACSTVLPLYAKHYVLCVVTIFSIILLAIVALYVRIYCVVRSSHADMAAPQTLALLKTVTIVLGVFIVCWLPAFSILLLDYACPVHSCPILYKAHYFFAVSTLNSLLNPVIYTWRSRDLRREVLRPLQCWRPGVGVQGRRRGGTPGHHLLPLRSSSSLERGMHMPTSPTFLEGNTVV
In plain terms, low EC50, meaning strictly below 20 nM, gives 1, and everything else gives -1.

INSERT INTO results (molecule, tested_target, class_label) VALUES
  ('CCOc1nc(C(F)(F)F)cc(N/C(=N/C#N)NCc2cc(C)c(-c3cn(C)nc3C(F)(F)F)nn2)c1C [Compound 80]', 'human GPCR sphingosine 1-phosphate receptor 2 (S1PR2) (Homo sapiens, UniProt O95136)', 1),
  ('CCOc1cc(NC(=O)NCc2cc(C)c(-c3cn(C)nc3C)nn2)cc(Cl)n1 [Compound 68]', 'human GPCR sphingosine 1-phosphate receptor 2 (S1PR2) (Homo sapiens, UniProt O95136)', -1),
  ('Cc1cc(CNC(=O)Nc2cnc(OCC(F)F)c(C(F)(F)F)c2)nnc1-c1cn(C)nc1C(F)(F)F [Compound 7]', 'human GPCR sphingosine 1-phosphate receptor 2 (S1PR2) (Homo sapiens, UniProt O95136)', 1),
  ('Cc1cc(CNC(=O)Nc2cc(C#N)nc(OCC(F)F)c2C)nnc1-c1cn(C)nc1C(F)(F)F [Compound 59]', 'human GPCR sphingosine 1-phosphate receptor 2 (S1PR2) (Homo sapiens, UniProt O95136)', 1),
  ('Cc1cc(CNC(=O)Nc2cc(Cl)c(F)c(Cl)c2)nnc1-c1cn(C)nc1C(F)(F)F [Compound 32]', 'human GPCR sphingosine 1-phosphate receptor 2 (S1PR2) (Homo sapiens, UniProt O95136)', 1),
  ('CCOc1nc(C(F)(F)F)cc(NC(=O)NCc2cc(C)c(-c3cn(C)nc3C(F)(F)F)nn2)c1CC [Compound 46]', 'human GPCR sphingosine 1-phosphate receptor 2 (S1PR2) (Homo sapiens, UniProt O95136)', 1),
  ('CCOc1cc(NC(=O)NCc2cc(C)c(N3C[C@@H](C)O[C@@H](C)C3)nn2)cc(C)n1 [Compound 93]', 'human GPCR sphingosine 1-phosphate receptor 2 (S1PR2) (Homo sapiens, UniProt O95136)', -1);

###

target: human GPCR sphingosine 1-phosphate receptor 1 (S1PR1) (Homo sapiens); assay: S1PR1 selectivity assay (Ca2+ flux, antagonist); conditions: S1P1 antagonist EC50, CHO cells overexpressing human S1PR1 and Gq protein
Sequence (P21453 whole entry): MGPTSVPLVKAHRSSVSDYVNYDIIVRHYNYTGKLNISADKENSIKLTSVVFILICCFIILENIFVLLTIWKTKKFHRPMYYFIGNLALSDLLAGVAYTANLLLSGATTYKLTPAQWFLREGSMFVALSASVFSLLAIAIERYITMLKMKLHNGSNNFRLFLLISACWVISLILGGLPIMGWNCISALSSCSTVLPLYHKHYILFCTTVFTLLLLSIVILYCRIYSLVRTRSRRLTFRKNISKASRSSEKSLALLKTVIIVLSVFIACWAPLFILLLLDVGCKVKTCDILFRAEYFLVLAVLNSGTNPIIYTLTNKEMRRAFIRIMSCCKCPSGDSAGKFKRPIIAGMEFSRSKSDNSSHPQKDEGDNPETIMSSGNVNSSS
MEASURED METRIC: EC50 (µM)

INSERT INTO measurements (compound, prefix_operator, quantitative_readout) VALUES
  ('Cc1cc(CNC(=O)Nc2cc(OCC(F)F)nc(N3CC(F)(F)C3)c2)nnc1-c1cn(C)nc1C(F)(F)F', '=', 5.1),
  ('Cc1cc(CNC(=O)Nc2cc(OC3CCOCC3)nc(C(F)(F)F)c2)nnc1-c1cn(C)nc1C(F)(F)F', '=', 5.15),
  ('Cc1cc(CNC(=O)Nc2cc(C#N)nc(OCC(F)F)c2C)nnc1-c1cn(C)nc1C(F)(F)F', '=', 6.61),
  ('Cc1cc(CNC(=O)Nc2cc(OCC(O)CO)nc(C(F)(F)F)c2)nnc1-c1cn(C)nc1C(F)(F)F (stereo not drawn)', '≥', 19.8),
  ('CCOc1cc(NC(=O)NCc2cc(C)c(N3CC(C)OC(C)C3)nn2)cc(C(F)(F)F)n1 (stereo not drawn)', '=', 1.4),
  ('Cc1cc(CNC(=O)Nc2cc(OCCO)nc(C(F)(F)F)c2)nnc1-c1cn(C)nc1C(F)(F)F', '≥', 19.8),
  ('CCOc1nc(C(F)(F)F)cc(NC(=O)NCc2cc(C)c(-c3cn(C)nc3C(F)(F)F)nn2)c1C', '=', 4.48),
  ('Cc1cc(CNC(=O)Nc2ccnc(C(F)(F)F)c2)nnc1-c1cn(C)nc1C(F)(F)F', '≥', 19.8),
  ('CCOc1cc(NC(=O)NCc2cc(C)c(N3CC(C)OC(C)C3)nn2)cc(Cl)n1 (stereo not drawn)', '=', 6.61),
  ('CCOc1cc(NC(=O)NCc2cc(C)c(-c3cn(C)nc3C(F)(F)F)nn2)cc(C(F)(F)F)n1', '=', 5.97),
  ('COCCOc1cc(NC(=O)NCc2cc(C)c(-c3cn(C)nc3C(F)(F)F)nn2)cc(C(F)(F)F)n1', '≥', 19.8),
  ('Cc1cc(CNC(=O)Nc2cnc(OCC(F)F)c(C(F)(F)F)c2)nnc1-c1cn(C)nc1C(F)(F)F', '≥', 19.8),
  ('CCOc1nc(C)cc(NC(=O)NCc2cc(C)c(-c3cn(C)nc3C(F)(F)F)nn2)c1Cl', '=', 6.61),
  ('CCOc1nc(C(F)(F)F)cc(N/C(=N/C#N)NCc2cc(C)c(-c3cn(C)nc3C(F)(F)F)nn2)c1C', '≥', 19.8),
  ('Cc1cc(CNC(=O)Nc2cc(Cl)nc(OCC(F)F)c2)nnc1N1CCC(F)(CO)C1 (stereo not drawn)', '=', 6.61),
  ('CCOc1cc(NC(=O)NCc2cc(C)c(N3CCC(F)(F)C3)nn2)cc(Cl)n1', '=', 6.61),
  ('Cc1cc(NC(=O)NCc2cc(C)c(-c3cn(C)nc3C(F)(F)F)nn2)cc(OCC(F)F)n1', '≥', 19.8),
  ('COCCOc1cc(NC(=O)NCc2cc(C)c(-c3cn(C)nc3C(F)(F)F)nn2)cc(Cl)n1', '≥', 19.8),
  ('Cn1cc(-c2nnc(CNC(=O)Nc3cc(Cl)nc(OCC(F)F)c3)cc2N2CC(F)(F)C2)c(C(F)(F)F)n1', '=', 2.8),
  ('Cc1cc(NC(=NC#N)NCc2cc(C)c(-c3cn(C)nc3C(F)(F)F)nn2)c(C)c(OCC(F)F)n1', '≥', 19.8),
  ('CN(C)Cc1cc(CNC(=O)Nc2cc(Cl)nc(OCC(F)F)c2)nnc1-c1cn(C)nc1C(F)(F)F', '=', 6.61),
  ('CCOc1cc(N/C(=N/C#N)NCc2cc(C)c(-c3cn(C)nc3C(F)(F)F)nn2)cc(C(F)(F)F)n1', '=', 13.2),
  ('CCOc1cc(NC(=O)NCc2cc(C)c(-c3cn(C)nc3C(F)(F)F)nn2)cnc1Cl', '≥', 19.8),
  ('Cn1cc(-c2nnc(CNC(=O)Nc3cc(Cl)nc(OCC(F)F)c3)cc2C2CC2)c(C(F)(F)F)n1', '=', 0.919),
  ('Cc1cc(CNC(=O)Nc2cc(Cl)nc(OCC(F)F)c2)nnc1N1CC(S(C)(=O)=O)C1', '≥', 19.8),
  ('Cc1cc(CNC(=O)Nc2cc(OCC3(C(F)(F)F)CC3)nc(C(F)(F)F)c2)nnc1-c1cn(C)nc1C(F)(F)F', '=', 6.61),
  ('CCOc1nc(C(F)(F)F)cc(NC(=O)NC(C)c2cc(C)c(-c3cn(C)nc3C(F)(F)F)nn2)c1C (stereo not drawn)', '≥', 19.8),
  ('Cc1cc(CNC(=O)Nc2cc(C(F)(F)F)nc(OCCO)c2C)nnc1-c1cn(C)nc1C(F)(F)F', '≥', 19.8),
  ('COCC(C)Oc1cc(NC(=O)NCc2cc(C)c(-c3cn(C)nc3C(F)(F)F)nn2)cc(C(F)(F)F)n1 (stereo not drawn)', '≥', 19.8),
  ('Cc1cc(CNC(=O)Nc2cc(N3CC(F)(F)C3)nc(C(F)(F)F)c2)nnc1-c1cn(C)nc1C(F)(F)F', '=', 6.61);
